Can you tell me TGI for the items I'm about to list?
test system: MCF7 breast; experiment: NCI tumour cell line growth inhibition, 48 h

Given COc1cc2c(cc1OC)C(OC)N(C)c1c-2ccc2cc3c(cc12)OCO3 (stereo unspecified) , respond with its TGI.
12.6 µM

Given CCCCCCCC/C=C\CCCCCCCC(=O)O , respond with its TGI.
215 µM

Given CN1CCN(c2ccc(Nc3nc(N)c(C(=O)c4ccc5c(c4)OCCO5)s3)cc2)CC1 , respond with its TGI.
7.73 µM

Given O=C(CCCNc1nc(-c2ccccc2)cs1)c1cccs1 , respond with its TGI.
> 100 µM

Given Cc1nc2c(nc1C)-c1c(c3c(n1C)C(=O)CCC3)C(=O)C2=O , respond with its TGI.
0.358 µM

Given N#CC(C#N)N=Nc1ccc(Br)cc1 , respond with its TGI.
> 51.7 µM

Given COc1cc(NC(C)=O)ccc1C(=O)NN1C(=O)C(Cl)C1c1ccco1 (stereo unspecified) , respond with its TGI.
> 100 µM

Given NC(=O)NC(=O)c1cccc(CNc2ccc(C(=O)N[C@@H](CCC(=O)O)C(=O)O)cc2)n1 , respond with its TGI.
> 100 µM

Given O=C(Nc1cc2c(=O)oc3ccccc3c2oc1=O)c1cccnc1 , respond with its TGI.
> 100 µM

Given O=C(Nc1ccccc1O)c1ccc(CNc2ccnc(C(F)(F)F)c2)cc1 , respond with its TGI.
> 100 µM

Given O=C(Cc1csc(N=Nc2c(O)[nH]c3ccccc23)n1)Nc1ccccc1 , respond with its TGI.
> 100 µM
